Experiment: Plasma and tissue pharmacokinetics following a single oral administration in male SD rat
Type: in vivo
Settings: muscle (skeletal), 10 mg/kg, 4 h post dose, read-out: 4 h Conc., Muscle (mean)
Description: Assay: Plasma and Tissue Pharmacokinetics of Example 22 Following a Single Oral Administration in Male SD Rat Preparation of PO (10 mg/kg, 10 mL/kg) Dosing 1 mg/mL solution of 0.5% (w/v) CMC-Na, 0.1% (v/v) Tween 80 in Milli-Q Water. Dissolved 29.68 mg of EXAMPLE 22 in 29.637 mL of 0.5% (w/v) CMC-Na, 0.1% (v/v). Tween 80 in Milli-Q Water with vortexing and sonicate to obtain a solution. […]
OBSERVABLE: concentration at 4 h (ng/g)
// note: answer is a bare numeric in ng/g

Asked: Supply recorded concentration at 4 h for O=C(O)C[C@H](CCN1CCCC(F)(F)C1)NC(=O)c1cc(-c2ccccc2C(F)(F)F)n(-c2nccs2)n1 [Example 22] here.
Given back: 7.3

* * *

test: Plasma and tissue pharmacokinetics following a single oral administration in male SD rat; format: in vivo; settings: spleen, 10 mg/kg, 4 h post dose, read-out: 4 h Conc., Spleen (mean)
OBSERVABLE: concentration at 4 h (ng/g)
The reply should be a number in ng/g, with the unit left off.

Asked: Give a short answer stating reported concentration at 4 h for `O=C(O)C[C@H](CCN1CCCC(F)(F)C1)NC(=O)c1cc(-c2ccccc2C(F)(F)F)n(-c2nccs2)n1` .
Given back: 14

* * *

experiment: Plasma and tissue pharmacokinetics following a single oral administration in male SD rat; assay type: in vivo; conditions: kidney (to plasma), 10 mg/kg, 24 h post dose, read-out: 24 h Tissue:Plasma Ratio, Kidney
OBSERVABLE: Kp at 24 h
Field format: numeric only.

Asked: Give Kp at 24 h for the following molecule: `O=C(O)C[C@H](CCN1CCCC(F)(F)C1)NC(=O)c1cc(-c2ccccc2C(F)(F)F)n(-c2nccs2)n1`
Given back: 3.47

* * *

assay: Plasma and tissue pharmacokinetics following a single oral administration in male SD rat; type: in vivo; conditions: heart, 10 mg/kg, 4 h post dose, read-out: 4 h Conc., Heart (mean)
OBSERVABLE: concentration at 4 h (ng/g)
Provide only the numeric value, understood in ng/g.

Asked: Specify measured concentration at 4 h for `O=C(O)C[C@H](CCN1CCCC(F)(F)C1)NC(=O)c1cc(-c2ccccc2C(F)(F)F)n(-c2nccs2)n1` .
Given back: 28.8

* * *

assay: Plasma and tissue pharmacokinetics following a single oral administration in male SD rat; format: in vivo; conditions: kidney, 10 mg/kg, 4 h post dose, read-out: 4 h Tissue:Plasma Ratio, Kidney
OBSERVABLE: Kp at 4 h

Asked: Specify Kp at 4 h for O=C(O)C[C@H](CCN1CCCC(F)(F)C1)NC(=O)c1cc(-c2ccccc2C(F)(F)F)n(-c2nccs2)n1 [Example 22] and stop.
Given back: 3.11

* * *

experiment: in vitro; conditions: human
OBSERVABLE: recovery at 6 h, 1 μM

Asked: Output measured recovery at 6 h, 1 μM for this item: CCCC(=O)Nc1ccc(OCC(O)CNC(C)C)c(C(C)=O)c1 (stereo not drawn) [Acebutolol]
Given back: 99.4%

Asked: Given CC(=O)CC(c1ccccc1)c1c(O)c2ccccc2oc1=O (stereo not drawn) [Warfarin] , respond with its recovery at 6 h, 1 μM.
Given back: 95.4%

Asked: Give the reported recovery at 6 h, 1 μM for this compound. O=C(O)C[C@H](CCN1CCCC(F)(F)C1)NC(=O)c1cc(-c2ccccc2C(F)(F)F)n(-c2nccs2)n1 [Example 22]
Given back: 74.4%

* * *

assay: Plasma and tissue pharmacokinetics following a single oral administration in male SD rat; format: in vivo; conditions: plasma, 10 mg/kg, 24 h post dose, read-out: 24 h Conc., Plasma (mean)
OBSERVABLE: concentration at 24 h (ng/mL)
Entry rule: numbers only, all in ng/mL.

Asked: Retrieve concentration at 24 h measured for `O=C(O)C[C@H](CCN1CCCC(F)(F)C1)NC(=O)c1cc(-c2ccccc2C(F)(F)F)n(-c2nccs2)n1` and print it.
Given back: 6.6
